# Tested on: HeLa-S3 cells
# Assay text: Cytotoxicity (MTT, without virus), HeLa-S3
# Test parameters: HeLa-S3, no virus, incubated for 4 days
Could you please report measured Cytotoxicity CC50 HeLa-S3 for the items listed next?

Consider the worked cases shown below.
The recorded Cytotoxicity CC50 HeLa-S3 for CC(C)c1ccc2c(c1)c(=O)cc(-c1cccs1)n2C is 16 µg/mL

The recorded Cytotoxicity CC50 HeLa-S3 for CCn1c(-c2cccs2)cc(=O)c2cc(C(C)C)ccc21 is 18 µg/mL

The recorded Cytotoxicity CC50 HeLa-S3 for CCn1c(-c2ccccc2)c(C)c(=O)c2cc(N3CCOCC3)ccc21 is >50 µg/mL

The recorded Cytotoxicity CC50 HeLa-S3 for Cc1c(-c2ccccc2)n(C)c2cc(C(C)C)c(OC(C)C)cc2c1=O is >5 µg/mL

The recorded Cytotoxicity CC50 HeLa-S3 for CCn1c(-c2ccccc2)c(C)c(=O)c2cc(OCC(C)C)c(C)cc21 is >4 µg/mL

Quick batch: Cytotoxicity CC50 HeLa-S3 for everything below.
1. Cc1cc2c(cc1OCC(C)C)c(=O)c(C)c(-c1ccccc1)n2C
2. CCn1c(-c2nccs2)cc(=O)c2cc(C(C)C)ccc21
3. CCn1c(-c2ccccc2)c(C)c(=O)c2cc(NCC(C)C)ccc21.O

1: >5 µg/mL; 2: >50 µg/mL; 3: >5 µg/mL

---

Could you please report measured IC50 for the items listed next?
# Tested on: coxsackievirus type A7 (CA7)
# Assay text: In vitro anti-picornavirus activity (MTT), CA7
# Assay type: cell-based
# Test parameters: Coxsackievirus; HeLa-S3 cells, MTT method, 37° C.

Consider the worked cases shown below.
The recorded IC50 for CCn1c2c(c(=O)c3cc(C(C)C)ccc31)C(O)c1ccccc1-2 (centres unmarked) is > 5 µg/mL

The recorded IC50 for CCn1c2c(c(=O)c3cc(C(C)C)ccc31)Cc1c-2ccn1C is > 10 µg/mL

The recorded IC50 for Cc1c(-c2ccccc2)n(-c2ccccc2)c2ccc(C(C)C)cc2c1=O is > 5 µg/mL

Quick batch: IC50 for everything below.
1. CCn1c2c(c(=O)c3cc(C(C)C)ccc31)Cc1c(C)csc1-2
2. CCn1c2c(c(=O)c3cc(C(C)C)ccc31)C(C)c1ccccc1-2 (centres unmarked)

1: > 5 µg/mL; 2: > 3.3 µg/mL

---

# System: coxsackievirus type B4 (CB4,JVB)
# Assay text: In vitro anti-picornavirus activity (MTT), CB4
# Type: cell-based
# Test parameters: HeLa cells, MTT method, 37° C.
# if measured IC50 CB4 < 1 µg/mL: 1  # else: 0

Solved entries (count: 5):
Given the entry COc1ccc(-c2cc(=O)c3cc(C(C)C)ccc3n2C)cc1C [Compound A97] , would its reported IC50 CB4 be below 1 µg/mL?
0

Given the entry CCc1ccc2c(c1)Cc1c-2n(CC)c2ccc(C(C)C)cc2c1=O [Compound B9] , would its reported IC50 CB4 be below 1 µg/mL?
1

Given the entry COc1ccc(-n2c(-c3ccccc3)c(C)c(=O)c3cc(C(C)C)ccc32)cc1 [Compound A326] , would its reported IC50 CB4 be below 1 µg/mL?
0

Given the entry CCn1c(-c2ccn(C)c2)cc(=O)c2cc(C(C)C)ccc21 [Compound A307] , would its reported IC50 CB4 be below 1 µg/mL?
0

Given the entry CC(C)c1ccc2c(c1)c(=O)cc(-c1ccn(C)c1)n2C [Compound A306] , would its reported IC50 CB4 be below 1 µg/mL?
0

More entries:
Given the entry Cc1c(-c2ccccc2)n(C)c2ccc(OCC(C)C)c(N)c2c1=O.Cl [Compound A194] , would its reported IC50 CB4 be below 1 µg/mL?
0

Given the entry CCn1c(-c2ccc(C)s2)cc(=O)c2cc(C(C)C)ccc21 [Compound A315] , would its reported IC50 CB4 be below 1 µg/mL?
1

---

Could you please report measured Cytotoxicity CC50 HeLa(Ohio) for the items listed next?
# Test system: HeLa (Ohio strain)cells
# Assay text: Cytotoxicity (MTT, without virus), HeLa(Ohio)
# Test parameters: HeLa(Ohio), no virus, incubated for 4 days

Consider the worked cases shown below.
The recorded Cytotoxicity CC50 HeLa(Ohio) for CCn1c(-c2ccccc2)cc(=O)c2c(C)c(OCC(C)C)ccc21 is >4 µg/mL

The recorded Cytotoxicity CC50 HeLa(Ohio) for CCn1c(-c2cccs2)cc(=O)c2cc(C(C)C)ccc21 is 14 µg/mL

The recorded Cytotoxicity CC50 HeLa(Ohio) for CCn1c2c(c(=O)c3cc(CC(C)C)ccc31)Cc1cc(OC)ccc1-2 [Compound B15] is >2.5 µg/mL

The recorded Cytotoxicity CC50 HeLa(Ohio) for CCCc1ccc2c(c1)c(=O)c(C)c(-c1ccccc1)n2CC is 5.8 µg/mL

The recorded Cytotoxicity CC50 HeLa(Ohio) for Cc1c(-c2ccccc2)n(C)c2cc(C(C)C)c(OC(C)C)cc2c1=O is 4.9 µg/mL

The recorded Cytotoxicity CC50 HeLa(Ohio) for CCn1c(-c2ccccc2)c(C)c(=O)c2cc(NCC(C)C)ccc21.Cl is >5 µg/mL

Quick batch: Cytotoxicity CC50 HeLa(Ohio) for everything below.
1. CCn1c(-c2ccc(OC)c(C)c2)cc(=O)c2cc(C(C)C)ccc21
2. CCn1c2c(c(=O)c3cc(C(C)C)ccc31)Cc1cc(OC)ccc1-2
3. CCn1c2c(c(=O)c3cc(C(C)C)ccc31)Cc1ccccc1-2.Cl
4. CCCOc1ccc2c(c1)c(=O)c(C)c(-c1ccccc1)n2CC
5. Cc1c(-c2ccccc2)n(C)c2ccc(OCC(C)C)c(N)c2c1=O.Cl

1: >4 µg/mL; 2: >2.5 µg/mL; 3: >4 µg/mL; 4: >10 µg/mL; 5: >2.5 µg/mL

---

# Tested on: HeLa (Ohio strain)cells
# Assay text: Cytotoxicity (MTT, without virus), HeLa(Ohio)
# Test parameters: HeLa(Ohio), no virus, incubated for 4 days
Quantity measured: Cytotoxicity CC50 HeLa(Ohio)

Consider the worked cases shown below.
The recorded Cytotoxicity CC50 HeLa(Ohio) for COc1ccc(-c2c(C)c(=O)c3c(C)c(OCC(C)C)ccc3n2C)cc1C [Compound A190] is >4 µg/mL

The recorded Cytotoxicity CC50 HeLa(Ohio) for COc1ccc(-c2cc(=O)c3cc(C(C)C)ccc3n2C)cc1C [Compound A97] is 4.5 µg/mL

Quick batch: Cytotoxicity CC50 HeLa(Ohio) for everything below.
1. CCn1c(-c2ccccc2)c(C)c(=O)c2cc(OCC(C)C)c(C)cc21 [Compound A235]
2. CCOc1ccc(-c2cc(=O)c3cc(C(C)C)ccc3n2C)cc1C [Compound A99]
3. CCn1c(-c2ccccc2)c(C)c(=O)c2ccc(C(C)C)cc21 [Compound A122]
4. CCn1c2c(c(=O)c3cc(C(C)C)ccc31)Cc1cc(OC)c(OC)cc1-2 [Compound B22]
5. Cc1ccc(-n2c(-c3ccccc3)c(C)c(=O)c3cc(C(C)C)ccc32)cc1 [Compound A325]

1: >4 µg/mL; 2: 5.7 µg/mL; 3: >10 µg/mL; 4: >10 µg/mL; 5: >2.5 µg/mL

Quick batch: Cytotoxicity CC50 HeLa(Ohio) for everything below.
1. CCn1c(-c2cccs2)c(C)c(=O)c2cc(C(C)C)ccc21 [Compound A311]
2. CCn1c(-c2nccs2)cc(=O)c2cc(C(C)C)ccc21 [Compound A319]

>10 µg/mL
32 µg/mL

---

# Test system: HeLa-S3 cells
# Assay text: Cytotoxicity (MTT, without virus), HeLa-S3
# Test parameters: HeLa-S3, no virus, incubated for 4 days
Could you please report measured Cytotoxicity CC50 HeLa-S3 for the items listed next?

Consider the worked cases shown below.
The recorded Cytotoxicity CC50 HeLa-S3 for CCn1c(-c2cccc(C)c2)c(C)c(=O)c2c(Cl)c(OCC(C)C)ccc21 [Compound A181] is >2.5 µg/mL

The recorded Cytotoxicity CC50 HeLa-S3 for Cc1cc2c(c(C)c1OCC(C)C)c(=O)cc(-c1ccccc1)n2C [Compound A285] is >4 µg/mL

The recorded Cytotoxicity CC50 HeLa-S3 for CCn1c(-c2ccccc2)c(C)c(=O)c2cc(NCC(C)C)ccc21.Cl [Compound A160] is >5 µg/mL

Quick batch: Cytotoxicity CC50 HeLa-S3 for everything below.
1. CCn1c(-c2cccc(OC)c2)c(C)c(=O)c2cc(C(C)C)ccc21 [Compound A78]
2. Cc1ccc(-c2cc(=O)c3cc(C(C)C)ccc3n2C)s1 [Compound A314]
3. CCn1c(-c2ccccc2)c(C)c(=O)c2cc(OCC(C)C)ccc21 [Compound A130]

1: >8 µg/mL; 2: >10 µg/mL; 3: >4 µg/mL

---

# Test system: HeLa (Ohio strain)cells
# Assay text: Cytotoxicity (MTT, without virus), HeLa(Ohio)
# Test parameters: HeLa(Ohio), no virus, incubated for 4 days
Could you please report measured Cytotoxicity CC50 HeLa(Ohio) for the items listed next?

Quick batch: Cytotoxicity CC50 HeLa(Ohio) for everything below.
1. COc1ccc2c(c1)Cc1c-2n(C)c2ccc(CC(C)C)cc2c1=O [Compound B11]
2. COc1cc2c(=O)c(C)c(-c3ccccc3)n(C)c2cc1C(C)C [Compound A226]
3. Cc1c(OCC(C)C)ccc2c1c(=O)cc(-c1ccccc1)n2C [Compound A186]
4. Cc1c(-c2ccccc2)n(-c2cccc(F)c2)c2ccc(C(C)C)cc2c1=O [Compound A322]

>2 µg/mL
>10 µg/mL
5.0 µg/mL
>1 µg/mL
